# tgt: CaPma1p (Candida albicans)
pIC50: −log10 of the molar value.
observable: pIC50

I'm curious: which pIC50 was measured for [O]=[V]([OH])([OH])[OH] [vanadate] tested on CaPma1p (Candida albicans)?
5.05 to 5.70

* * *

# tgt: CaPma1p (Candida albicans, UniProt A0A1D8PJ01, A570P/A595V/D557N/D559E/I574L/N594R/S564G/S601N/V186I/V531I)
# measurement-notes: biochemical
pIC50: −log10 of the molar value.
observable: pIC50

Consider the molecule [O]=[V]([OH])([OH])[OH] [vanadate] and give its measured pIC50.
5.05 to 5.70
